test system: Streptococcus pyogenes; assay: Antibacterial activity in mice infected with Streptococcus pyogenes C203; assay type: functional
Assay Metric: MIC (µg/mL)
One number for each entry, in µg/mL.

Reference set, count: 3
>  <Compound>
CC1=C(C(=O)O)N2C(=O)C(NC(=O)[C@H](N)c3ccc4ccccc4c3)C2SC1 (stereo not given in full)

>  <Assay Metric>
MIC

>  <Result Units>
µg/mL

>  <Test Result>
0.125

$$$$
>  <Compound>
CC1=C(C(=O)O)N2C(=O)C(NC(=O)[C@@H](N)c3csc4ccccc34)C2SC1 (stereo not given in full)

>  <Assay Metric>
MIC

>  <Result Units>
µg/mL

>  <Test Result>
0.5

$$$$
>  <Compound>
N[C@@H](C(=O)N[C@@H]1C(=O)N2C(C(=O)O)=C(Cl)CS[C@H]12)c1ccccc1 [CEFACLOR ANHYDROUS]

>  <Assay Metric>
MIC

>  <Result Units>
µg/mL

>  <Test Result>
0.25

$$$$

Record MIC for all entries; do not skip any.
1. CC1=C(C(=O)O)N2C(=O)[C@@H](NC(=O)[C@H](N)c3ccccc3)[C@H]2SC1 [CEPHALEXIN ANHYDROUS]
2. CC1=C(C(=O)O)N2C(=O)C(NC(=O)[C@@H](N)c3cc4ccccc4s3)C2SC1 (stereo not given in full)

[0.5, 0.25]

###

tested on: Staphylococcus aureus; assay: Antibacterial activity against penicillin G sensitive Staphylococcus aureus V41; format: functional
Please respond with reported MIC for every item in the list.
Answers are plain numbers, in µg/mL.

Reference set, count: 3
>  <Compound>
CC1=C(C(=O)O)N2C(=O)C(NC(=O)[C@H](N)c3ccc4cc(Cl)ccc4c3)C2SC1 (some centres undefined)

>  <MIC, µg/mL>
8

$$$$
>  <Compound>
CC1=C(C(=O)O)N2C(=O)C(NC(=O)[C@H](N)c3csc4c(F)cccc34)C2SC1 (some centres undefined)

>  <MIC, µg/mL>
16

$$$$
>  <Compound>
CC1=C(C(=O)O)N2C(=O)C(NC(=O)[C@H](N)c3cccc4ccc(Cl)cc34)C2SC1 (some centres undefined)

>  <MIC, µg/mL>
4

$$$$

Now, please, on to the next compound.
Give recorded MIC. CC1=C(C(=O)O)N2C(=O)C(NC(=O)[C@H](N)c3cccc4ccccc34)C2SC1 (some centres undefined)
32

###

test system: Streptococcus pneumoniae; test: Antibacterial activity in mice infected with Streptococcus pneumoniae Park1 by subcutaneous administration; format: functional
Assay Metric: ED50
Express the reported value numerically, then name its unit.

>  <Compound>
CC1=C(C(=O)O)N2C(=O)C(NC(=O)[C@H](N)c3ccc4ccccc4c3)C2SC1 (some centres undefined)

>  <Measured Target>
Streptococcus pneumoniae

>  <Test Result>
17.6 mg/kg

$$$$
>  <Compound>
CC1=C(C(=O)O)N2C(=O)[C@@H](NC(=O)[C@H](N)c3ccccc3)[C@H]2SC1 [CEPHALEXIN ANHYDROUS]

>  <Measured Target>
Streptococcus pneumoniae

>  <Test Result>
23 mg/kg

$$$$
>  <Compound>
CC1=C(C(=O)O)N2C(=O)C(NC(=O)[C@@H](N)c3cc4ccccc4s3)C2SC1 (some centres undefined)

>  <Measured Target>
Streptococcus pneumoniae

>  <Test Result>
15 mg/kg

$$$$

Now, please, on to the next compound.
Give recorded ED50. N[C@@H](C(=O)N[C@@H]1C(=O)N2C(C(=O)O)=C(Cl)CS[C@H]12)c1ccccc1 [CEFACLOR ANHYDROUS]
11.5 mg/kg

Provenance of the data: ChEMBL document CHEMBL1122874
